Record form. Attribute: EC50. Fill in for each entry.
assayed_system: PD-1/PD-L1 interaction (Homo sapiens, UniProt Q9NZQ7)
Construct: expressed in transfected cells; host or cells: CHO cells (aAPC-PD-L1) co-cultured with Jurkat cells overexpressing PD-1 and an NFAT-luciferase reporter
Sequence (Q9NZQ7 19-290): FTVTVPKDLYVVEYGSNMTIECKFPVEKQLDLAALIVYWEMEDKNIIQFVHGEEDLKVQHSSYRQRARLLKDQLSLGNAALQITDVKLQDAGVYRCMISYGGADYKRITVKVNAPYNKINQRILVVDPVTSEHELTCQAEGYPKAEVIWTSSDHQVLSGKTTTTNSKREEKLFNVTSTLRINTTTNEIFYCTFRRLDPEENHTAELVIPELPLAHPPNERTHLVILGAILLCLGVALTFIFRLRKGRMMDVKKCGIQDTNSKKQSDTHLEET
experimental_protocol: PD-1/PD-L1 NFAT reporter co-culture assay
Format: cell-based
run_conditions: Jurkat PD-1 NFAT-luciferase cells co-cultured with aAPC-PD-L1 CHO cells, 6 hrs at 37° C.; read-out: EC50 NFAT Luciferase

For each entry beneath this line, provide reported EC50.
1. OCCNCc1cc(Cl)c2nc(-c3cccc(-c4cccc(-c5nc6c(Cl)cc(CNCCO)cn6n5)c4Cl)c3Cl)nn2c1
2. C[C@@](CO)(NCc1cc(Cl)c(OCc2cccc(-c3cccc(-c4ccc(CNC[C@@H]5CCC(=O)N5)cc4)c3Cl)c2Cl)nc1OCc1cc(C#N)cc(C#N)c1)C(=O)O
3. COc1nc(OCc2cccc(-c3cccc(COc4nc(OC)c(C(=O)NC[C@@H](O)CC(=O)O)cc4Cl)c3C)c2C)c(Cl)cc1C(=O)NC[C@@H](O)CC(=O)O
4. COc1nc(OCc2cccc(-c3cccc(COc4nc(OC)c(CN5CCNC(=O)C5)cc4Br)c3C)c2C)c(Br)cc1CN1CCNC(=O)C1

Completion:
1. ≥ 50 µM
2. 0.016 µM
3. ≥ 50 µM
4. ≥ 50 µM
